Field: log10 MIC. Provide a value for each of the compounds that follow.
# Test system: B. Fragilis NCTC 10581
# protocol-summary: Anti-anaerobic activity, strain A (microtitre plate MIC/MBC)
# Assay type: cell-based, Bacteroides fragilis
# condition-info: Bacteroides fragilis, NCTC10581, 48 h, strain A; 48 hours, 37° C., anaerobic chamber; lowest concentration with no detectable growth; read-out: MIC
Structures can show the parent of a compound that is named as a salt.
Heads up: the numbers are on a log10 scale; they represent MIC in µg/mL.

Look over these answered cases.
{"columns": ["compound", "log10 MIC"],
 "data": [
  ["FC(F)(F)c1cccc(N2CCN=C2C(Cn2ccnc2)c2ccccc2)c1 (centres unmarked) [Example 4, hydrochloride]", 0.79],
  ["Clc1ccc(CN2CCN=C2C(Cn2cncn2)c2ccccc2)c(Cl)c1 (centres unmarked) [Example 17, dihydrochloride]", 1.70],
  ["CCCCCCN1CCN=C1C(Cn1ccnc1)c1ccccc1.Cl (centres unmarked) [Example 25]", 1.40],
  ["Cc1ccc(N2CCN=C2C(Cn2ccnc2)c2ccccc2)c(C)c1 (centres unmarked) [Example 24, dihydrochloride]", 1.40],
  ["CCCCCCCCN1CCN=C1C(Cn1ccnc1)c1ccccc1 (centres unmarked) [Example 19, dihydrochloride]", 1.10],
  ["Clc1ccc(N2CCN=C2C(CCn2ccnc2)c2ccccc2)c(Cl)c1 (centres unmarked) [Example 27]", 2.00],
  ["CCCCCCCCCCN1CCN=C1C(Cn1ccnc1)c1ccccc1.Cl.Cl (centres unmarked) [Example 26]", 0.32],
  ["Clc1ccc(N2CCN=C2C(Cn2cncn2)c2ccccc2)c(Cl)c1 (centres unmarked) [Example 20]", 1.10]
]}

Batch of 2 compounds: report log10 MIC for each.
1. Cc1nccn1CC(C1=NCCN1c1ccc(Cl)cc1Cl)c1ccccc1 (centres unmarked) [Example 21, dihydrochloride]
2. CSc1nccn1CC(C1=NCCN1c1ccc(Cl)cc1Cl)c1ccccc1 (centres unmarked) [Example 22, dihydrochloride]

[1.10, 0.79]

Lookup result for Cc1ncc([N+](=O)[O-])n1CCO [Metronidazole, reference compound] ; measured log10 MIC: -0.22
